Reference source for all entries: PubChem BioAssay (NCI)

Listed molecules paired with reported TGI
system: SW-620 colon; assay: NCI tumour cell line growth inhibition, 48 h

Worked cases, answers included:
MOLECULE: COC(=O)C(/C(=N/N)C(=O)Nc1cc(Cl)ccc1Cl)c1nc2ccc([N+](=O)[O-])cc2[nH]c1=O (stereo not given)
TGI: > 100 µM
//
MOLECULE: COC(=O)c1ccc(Oc2nc3ccc(C(F)(F)F)cc3nc2-c2ccccc2)cc1
TGI: > 100 µM
//
MOLECULE: O=P(O)(O)c1ccc2c(c1)OCCOCCOCCOCCO2
TGI: > 100 µM
//
MOLECULE: CCCCCCCCCCCCCCCCCC1=NC(C)(C)CN1C(C)(C)CO
TGI: 2.9 µM

TGI reading for COc1ccc2c(c1)/C(=C\c1c(-c3ccccc3)nc3sccn13)C(=O)N2 : > 49.6 µM
